Assay: Half life in pH 7.3 PBS buffer at 1.4 mM by HPLC analysis
Type: physicochemical
# label = Met if half-life at 1400 µM >= 30 days else Not met

CCCCCCCCCCCCCCCCCCP(=O)(OCCC#N)OP(=O)(O)OP(=O)(O)OC[C@@H]1C=C[C@H](n2cc(C)c(=O)[nH]c2=O)O1.N.N (stereo partly specified)	Not met

Decide: is the reported value of half-life at 1400 µM for CCCCCCCCCCCCP(=O)(OCc1ccc(OC(=O)CCCCCCCCCCC)cc1)OP(=O)(O)OP(=O)(O)OC[C@@H]1C=C[C@H](n2cc(C)c(=O)[nH]c2=O)O1.N.N (stereo partly specified) equal to or greater than 30 days?
Met

====

Assay: Half life in human CEM/0 cell extracts at 6 mM by HPLC analysis
Type: ADME, tissue-based, CCRF-CEM
Measured log10 half-life at 6000 µM by item
A difference of one corresponds to tenfold half-life at 6000 µM; all values are log10 with half-life at 6000 µM in h.

CCCCCCCCCCCCCCP(=O)(OCc1ccc(OC(=O)CCCC)cc1)OP(=O)(O)OP(=O)(O)OC[C@@H]1C=C[C@H](n2cc(C)c(=O)[nH]c2=O)O1.N.N (some centres undefined)	0.65
CCCCCCCCCCCCP(=O)(OCc1ccc(OC(=O)CCCC)cc1)OP(=O)(O)OP(=O)(O)OC[C@@H]1C=C[C@H](n2cc(C)c(=O)[nH]c2=O)O1.N.N (some centres undefined)	-0.09
CCCCCCCCCCCCCCCCCCP(=O)(OCc1ccc(OC(=O)CCCC)cc1)OP(=O)(O)OP(=O)(O)OC[C@@H]1C=C[C@H](n2cc(C)c(=O)[nH]c2=O)O1.N.N (some centres undefined)	0.83

log10 half-life at 6000 µM for CCCCCCCCCCCCP(=O)(OCc1ccc(OC(=O)OC)cc1)OP(=O)(O)OP(=O)(O)OC[C@@H]1C=C[C@H](n2cc(C)c(=O)[nH]c2=O)O1.N.N (some centres undefined) ?
-0.19

====

Experiment: Half life in pH 7.3 PBS buffer at 1.4 mM by HPLC analysis
Assay type: physicochemical
# label = 1 if half-life at 1400 µM >= 6 days else 0

Check out these entries, answers already filled in.
CCCCCCCCCCCCP(=O)(O)OP(=O)(O)OP(=O)(O)OC[C@@H]1C=C[C@H](n2cc(C)c(=O)[nH]c2=O)O1.N.N.N	1
CCCCCCCCCCCCCCCCCCP(=O)(O)OP(=O)(O)OP(=O)(O)OC[C@@H]1C=C[C@H](n2cc(C)c(=O)[nH]c2=O)O1.N.N.N	1
CCCCCCCCCCCCP(=O)(OCc1ccc(OC(C)=O)cc1)OP(=O)(O)OP(=O)(O)OC[C@@H]1C=C[C@H](n2cc(C)c(=O)[nH]c2=O)O1.N.N (stereo partly drawn)	0
CCCCCCCCCCCCCCP(=O)(OCc1ccc(OC(=O)OCCCC)cc1)OP(=O)(O)OP(=O)(O)OC[C@@H]1C=C[C@H](n2cc(C)c(=O)[nH]c2=O)O1.N.N (stereo partly drawn)	1
CCCCCCCCCCCCP(=O)(OCc1ccc(OC(=O)OCCCCCCCCCCC)cc1)OP(=O)(O)OP(=O)(O)OC[C@@H]1C=C[C@H](n2cc(C)c(=O)[nH]c2=O)O1.N.N (stereo partly drawn)	1

Decide: is the reported value of half-life at 1400 µM for CCCCCCCCCCCCP(=O)(OCc1ccc(OC(=O)OCCCC)cc1)OP(=O)(O)OP(=O)(O)OC[C@@H]1C=C[C@H](n2cc(C)c(=O)[nH]c2=O)O1.N.N (stereo partly drawn) equal to or greater than 6 days?
1

// next record CCCCCCCCCCCCP(=O)(OCc1ccc(OC(=O)OC)cc1)OP(=O)(O)OP(=O)(O)OC[C@@H]1C=C[C@H](n2cc(C)c(=O)[nH]c2=O)O1.N.N (stereo partly drawn)
0
